pIC50: −log10 of the molar value.
As an illustration, consider measured pIC50 for compounds on DNA polymerase theta [1-899] (UniProt O75417).
Sequence (O75417 1-899): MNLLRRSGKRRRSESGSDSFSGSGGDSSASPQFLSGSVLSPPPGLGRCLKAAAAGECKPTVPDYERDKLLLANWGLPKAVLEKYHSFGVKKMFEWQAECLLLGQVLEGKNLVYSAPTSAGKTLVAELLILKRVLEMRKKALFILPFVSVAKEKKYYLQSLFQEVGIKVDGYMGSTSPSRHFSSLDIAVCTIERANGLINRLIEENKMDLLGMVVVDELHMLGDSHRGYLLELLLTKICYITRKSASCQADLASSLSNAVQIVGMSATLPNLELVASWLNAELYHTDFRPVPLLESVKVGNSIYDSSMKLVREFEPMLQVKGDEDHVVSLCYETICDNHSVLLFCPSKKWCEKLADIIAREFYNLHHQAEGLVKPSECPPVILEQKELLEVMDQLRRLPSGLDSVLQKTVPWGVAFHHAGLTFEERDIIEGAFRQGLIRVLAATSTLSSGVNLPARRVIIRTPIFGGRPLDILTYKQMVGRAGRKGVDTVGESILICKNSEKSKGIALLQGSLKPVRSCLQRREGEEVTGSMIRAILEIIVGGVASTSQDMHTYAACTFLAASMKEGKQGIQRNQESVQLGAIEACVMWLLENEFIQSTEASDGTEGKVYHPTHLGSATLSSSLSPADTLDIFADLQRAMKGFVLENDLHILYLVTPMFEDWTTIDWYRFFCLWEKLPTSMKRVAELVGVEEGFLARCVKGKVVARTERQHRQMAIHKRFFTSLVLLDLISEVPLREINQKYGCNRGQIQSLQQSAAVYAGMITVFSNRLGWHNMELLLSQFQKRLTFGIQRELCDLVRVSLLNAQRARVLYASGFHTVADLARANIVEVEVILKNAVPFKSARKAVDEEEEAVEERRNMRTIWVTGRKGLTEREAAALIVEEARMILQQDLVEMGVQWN

- Compound: "O=C(Nc1nnc(OCc2ccc(Cl)cc2)s1)c1ccncc1N1CCO[C@@H]2C[C@@H]21 (mixture of isomers)"
  pIC50: "> 6.70"

// switching to the query compound
Field pIC50 (system: DNA polymerase theta [1-899] (UniProt O75417)) for entry N#Cc1cc(-c2c(F)cccc2OC(F)F)c(C(=O)Nc2nnc(OCc3ccc(Cl)cn3)s2)cn1 = > 6.70
